// reported NDPK activity per item
system_tested: recombinant Nm23-H1 (Homo sapiens, UniProt P15531)
Sequence (P15531 whole entry): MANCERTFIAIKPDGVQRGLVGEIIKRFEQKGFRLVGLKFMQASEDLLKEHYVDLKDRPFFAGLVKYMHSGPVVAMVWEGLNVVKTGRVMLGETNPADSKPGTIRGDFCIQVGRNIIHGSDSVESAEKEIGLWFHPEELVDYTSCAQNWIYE
method_notes: NDPK assay with recombinant Nm23-H1
Type: biochemical
Design: unit not given here
experimental_setup: 5 ng recombinant Nm23-H1, 10 min room temperature, then 5 μM ADP 1 min; compound concentration not given
Procedure: NDPK assay was performed by incubating 5 ng of recombinant Nm23-H1 with each of test compounds (Examples 1 to 3) in NDPK assay buffer (20 mM HEPES, 3 mM MgCl2) at room temperature for 10 minutes, followed by reaction with 5 μM ADP for 1 minute.
Keep it simple and answer with nothing but the number.

Take a look at these entries with their results.
COc1ccc(CCc2ccccc2-c2ccc(OC)c(OC)c2)cc1OC ... 6.55
COc1cc(CCc2ccccc2-c2ccc(OC)c(OC)c2)ccc1O ... 2.6

Challenge: Could you share which NDPK activity value was measured for COc1ccc(NC(=O)c2ccccc2-c2ccc(OC)c(OC)c2)cc1OC ?
Response given: 1.32

Challenge: Another compound to look at: COc1ccc(CCc2ccccc2-c2ccc(OC)c(OC)c2)cc1O
Response given: 3.5
